B1: SH3 and PX domain-containing protein 2B, residues 155 to 209; numbered along this chain, A1X283 (parent)
chain: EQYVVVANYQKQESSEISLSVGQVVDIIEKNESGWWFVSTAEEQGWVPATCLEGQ

Variants of: B1
measurementProtocol: abundance fitness (aPCA) (normalised: wild type 0, dead -1); higher = more abundant; growth selection in yeast, the domain comes from the species named
conditionParameters: Homo sapiens
outcomeMeasure: abundance fitness
Answer as a number with no unit attached.

(Q) Provide only the value of recorded abundance fitness for "E43W"
(A) -0.31

(Q) Please report abundance fitness for the following variant: "V21L"
(A) -0.188

(Q) Identify measured abundance fitness corresponding to "E1V"
(A) -0.035

(Q) Supply reported abundance fitness belonging to this variant: "S15I"
(A) -0.201

(Q) # return recorded abundance fitness for input "K11Q"
(A) -0.132

(Q) Return the recorded abundance fitness value; entry: "G22M"
(A) -0.617

(Q) Identify measured abundance fitness associated with "Q2A"
(A) -0.247

(Q) # return recorded abundance fitness for entry "E43N"
(A) 0.017

(Q) Specify reported abundance fitness for the variant shown: "C51M"
(A) -0.787

(Q) Quick one: give measured abundance fitness for "A7I"
(A) -0.32

(Q) Given "Q2D" , respond with its abundance fitness.
(A) -0.378

(Q) Check the records and state abundance fitness for "E16L"
(A) -0.805

(Q) Provide one value: measured abundance fitness of "Y3L"
(A) -0.237

(Q) Return reported abundance fitness. Input variant: "A49F"
(A) -0.139

(Q) Answer with the recorded abundance fitness of "V5Q" only.
(A) -0.994

(Q) Assign abundance fitness to the following record: "N8T"
(A) 0.018

(Q) Please list abundance fitness recorded for the variant "V47K"
(A) -0.929

(Q) For the variant "E1R" , report abundance fitness.
(A) -0.469

(Q) Give the reported value of abundance fitness for this record: "G34A"
(A) -0.189

(Q) Return abundance fitness for the following variant: "Q44P"
(A) -0.807

(Q) Hello, please tell me recorded abundance fitness for this one: "D26G"
(A) -0.126

(Q) Provide only the value of recorded abundance fitness for "Q10A"
(A) 0.003

(Q) Provide abundance fitness value for the following variant: "G45C"
(A) -0.779

(Q) Using the record for "S20E" , state its measured abundance fitness.
(A) 0.09

(Q) Supply reported abundance fitness belonging to this variant: "L19A"
(A) -0.482

(Q) Specify measured abundance fitness for "K30E" .
(A) -0.17

(Q) Determine its reported abundance fitness: "E1L"
(A) -0.001

(Q) Name the recorded abundance fitness of the variant listed here: "I17V"
(A) -0.048

(Q) Supply reported abundance fitness belonging to this variant: "E53R"
(A) -0.064

(Q) Report abundance fitness for "I27W"
(A) -0.477

(Q) Output measured abundance fitness for this item: "Q55D"
(A) -0.034

(Q) Give recorded abundance fitness. "D26L"
(A) -0.078

(Q) Tell me its abundance fitness given "W36C" as the entry.
(A) -0.11

(Q) Annotate the variant "G22F" with its measured abundance fitness.
(A) -0.91

(Q) Identify abundance fitness associated with the variant "S33D"
(A) 0.095

(Q) Input "I17P" , output reported abundance fitness.
(A) -0.769

(Q) Query abundance fitness for "I17Q"
(A) -0.672

(Q) Quote abundance fitness reported for "V25W" please.
(A) -0.983

(Q) // fetch abundance fitness given entry "E13Y"
(A) -0.248

(Q) // Input: "Y9A" . Output its abundance fitness only.
(A) -0.774

(Q) Specify reported abundance fitness for the variant shown: "Q44F"
(A) -0.207

(Q) Please report abundance fitness for the following variant: "Q10G"
(A) -0.322

(Q) Provide one value: measured abundance fitness of "S15F"
(A) -0.244

(Q) Fill in reported abundance fitness for this entry: "V38N"
(A) -0.895

(Q) Supply abundance fitness value. Item: "V6Y"
(A) -0.262

(Q) Recall and state the measured abundance fitness for "K30D" .
(A) -0.767
